conditions: LPEester – LPEamide by amide–ester matched pairs
observation type: ΔLPE

>>> readout_number("CCCC(=O)OCCCCCC(=O)N[C@H](C(=O)N1C[C@H](O)C[C@H]1C(=O)NCc1ccc(-c2scnc2C)cc1)C(C)(C)C [Compound 9]")
1.1
>>> readout_number("Cc1ncsc1-c1ccc(CNC(=O)[C@@H]2C[C@@H](O)CN2C(=O)[C@@H](NC(=O)CCCCCOC(=O)CC23CC4CC(CC(C4)C2)C3)C(C)(C)C)cc1 [Compound 12]")
1.8
>>> readout_number("Cc1ncsc1-c1ccc(CNC(=O)[C@@H]2C[C@@H](O)CN2C(=O)[C@@H](NC(=O)CCCCCOC(=O)CC(c2ccccc2)c2ccccc2)C(C)(C)C)cc1 [Compound 13]")
1.6
>>> readout_number("Cc1ncsc1-c1ccc(CNC(=O)[C@@H]2C[C@@H](O)CN2C(=O)[C@@H](NC(=O)CCCCCOC(=O)C2CCCCC2)C(C)(C)C)cc1 [Compound 11]")
1.8
>>> readout_number("COCC(=O)OCCCCCC(=O)N[C@H](C(=O)N1C[C@H](O)C[C@H]1C(=O)NCc1ccc(-c2scnc2C)cc1)C(C)(C)C [Compound 8]")
-0.2
